- Tested on: db/db mice
- experiment: Antihyperlipidemic activities in genetically diabetic mice
- Assay type: in vivo
- settings: 150 mg/kg p.o. once daily for 14 days, serum
- Description: Genetically diabetic db/db mice (C57BL/ksJ Jcl-dbm db/db mice) older than 8 weeks were grouped depend on their blood sugar levels of the prior measurements in order to divide groups with almost equal mean value of the sugar level. […] The glucose level in the serum of each group was measured. Then, a reduction rate in a glucose level (%) compared to the control group was calculated with mean value of each group according to the equation below. […]
metric: Reduction Rate (%) β-lipoproteins
All answers are understood in %, so give the number only.

Which Reduction Rate (%) β-lipoproteins value is on record for N#CN=C1NC(=O)/C(=C\c2ccc(C=Cc3ccccc3)cc2)S1 [Compound 1] ?
51

Which Reduction Rate (%) β-lipoproteins value is on record for N#CN=C1NC(=O)C(=Cc2ccc(Oc3ccccc3)cc2)S1 [Compound 22] ?
56

Which Reduction Rate (%) β-lipoproteins value is on record for N#CN=C1NC(=O)C(=Cc2ccc(OCc3ccccc3)cc2)S1 [Compound 13] ?
65

Which Reduction Rate (%) β-lipoproteins value is on record for N#CN=C1NC(=O)C(=Cc2ccccc2OCCc2ccccc2)S1 [Compound 21] ?
38

Which Reduction Rate (%) β-lipoproteins value is on record for N#CN=C1NC(=O)C(=Cc2ccc(COCc3ccccc3)cc2)S1 [Compound 3] ?
65

The values you see were collected from patent US6667328B2.
